These data points were gathered from patent US20150086562A1.

Molecular target: T1, recombinant CD22 extracellular domain
T1 construct: Kept apart from m18, which is cell-surface CD22; also called CD22 (analyte in the BIAcore runs); CD22 ECD
T1 sequence (chain, as listed by the source limits assumed): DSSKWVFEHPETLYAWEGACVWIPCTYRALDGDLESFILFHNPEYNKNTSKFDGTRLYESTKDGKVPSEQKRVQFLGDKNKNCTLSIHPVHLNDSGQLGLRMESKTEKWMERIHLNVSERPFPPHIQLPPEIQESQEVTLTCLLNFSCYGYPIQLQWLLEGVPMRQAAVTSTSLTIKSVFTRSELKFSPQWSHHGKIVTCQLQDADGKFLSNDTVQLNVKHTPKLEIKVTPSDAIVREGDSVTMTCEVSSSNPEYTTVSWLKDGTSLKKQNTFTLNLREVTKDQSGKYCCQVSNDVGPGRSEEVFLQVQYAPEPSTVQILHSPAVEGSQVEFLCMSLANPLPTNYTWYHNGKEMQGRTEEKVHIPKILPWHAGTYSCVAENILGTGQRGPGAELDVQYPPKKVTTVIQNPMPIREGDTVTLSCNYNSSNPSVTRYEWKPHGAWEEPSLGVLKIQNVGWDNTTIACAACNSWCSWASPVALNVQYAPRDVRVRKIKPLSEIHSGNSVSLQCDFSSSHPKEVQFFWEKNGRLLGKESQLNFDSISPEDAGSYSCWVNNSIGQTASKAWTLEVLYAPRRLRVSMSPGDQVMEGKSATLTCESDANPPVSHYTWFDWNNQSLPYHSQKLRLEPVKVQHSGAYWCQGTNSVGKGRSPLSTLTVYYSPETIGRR
Test: The sheet does not state the method. The column 'KD (nM)' stands beside the confocal data. The values largely repeat FIGURE 18 (SPR on recombinant CD22 extracellular domain), so the target form is taken from there.
Each entry below carries its recorded Kd.
Reported Endpoint: Kd (nM)

1) VM1007 (antibody, V domains shown, Humanized antibody with human constant region; also called anti-CD22 Mab clone VM1007) VH: QVQLVQSGAEVKKPGASVKVSCKASGYVFTSYWLHWVRQARGQRLEWIGYINPRNDYTEYNRIFKGRVTITADKSTSTAYMELSSLRSEDTAVYYCARRGITTFYWGQG VL: AIQLTQSPSSLSASVGDRVTITCKSSQSVLYSAVEKNYLAWYQQKPGKAPKLLIYWASTRERGVPSRFSGSGSGTDFTFTISSLEAEDAATYYCKQYLSSWTFGQG; 1
2) VM1000 (antibody, V domains shown, Humanized antibody with human constant region; also called anti-CD22 Mab clone VM1000) VH: QVQLVQSGAEVKKPGASVKVSCKASGYVFTSYWLHWIRQSPSRGLEWLGYINPRNDYTEYNRIFKGRLTISKDTSKNQVVLTMTNMDPVDTATYYCARRGITTFYWGQG VL: EIVLTQSPATLSLSPGERATLSCKSSQSVLYSAVEKNYLAWYQQKPGKAPKLLIYWASTRERGVPSRFSGSGSGTDFTFTISSLQPEDIATYYCKQYLSSWTFGQG; 0.5
3) VM1002 (antibody, V domains shown, Humanized antibody with human constant region; also called anti-CD22 Mab clone VM1002) VH: EVQLVQSGAEVKKPGESLRISCKGSGYVFTSYWLHWVRQAPGQGLEWMGYINPRNDYTEYNRIFKGRVTITADKSTSTAYMELSSLRSEDTAVYYCARRGITTFYWGQG VL: EIVLTQSPATLSLSPGERATLSCKSSQSVLYSAVEKNYLAWYQQKPGQAPRLLIYWASTRERGIPDRFSGSGSGTDFTLTISRLEPEDFAVYYCKQYLSSWTFGQG; 0.33
4) VM1003 (antibody, V domains shown, Humanized antibody with human constant region; also called anti-CD22 Mab clone VM1003) VH: EVQLVQSGAEVKKPGATVKISCKVSGYVFTSYWLHWIRQSPSRGLEWLGYINPRNDYTEYNRIFKGRFVFSLDTSVSTAYLQICSLKAEDTAVYYCARRGITTFYWGQG VL: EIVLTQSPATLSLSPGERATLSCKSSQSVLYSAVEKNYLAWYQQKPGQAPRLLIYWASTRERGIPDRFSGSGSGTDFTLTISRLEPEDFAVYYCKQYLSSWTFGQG; 0.34
5) VM1001 (antibody, V domains shown, Humanized antibody with human constant region; also called anti-CD22 Mab clone VM1001) VH: QVQLVQSGAEVKKPGASVKVSCKASGYVFTSYWLHWIRQSPSRGLEWLGYINPRNDYTEYNRIFKGRLTISKDTSKNQVVLTMTNMDPVDTATYYCARRGITTFYWGQG VL: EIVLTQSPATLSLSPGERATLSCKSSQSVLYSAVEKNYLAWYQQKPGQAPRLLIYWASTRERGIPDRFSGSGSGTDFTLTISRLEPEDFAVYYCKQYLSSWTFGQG; 0.22
6) VM1004 (antibody, V domains shown, Humanized antibody with human constant region; also called anti-CD22 Mab clone VM1004) VH: EVQLVQSGAEVKKPGATVKISCKVSGYVFTSYWLHWIRQSPSRGLEWLGYINPRNDYTEYNRIFKGRFVFSLDTSVSTAYLQICSLKAEDTAVYYCARRGITTFYWGQG VL: EIVLTQSPATLSLSPGERATLSCKSSQSVLYSAVEKNYLAWYQQKPGKAPKLLIYWASTRERGIPDRFSGSGSGTDFTLTISRLEPEDFAVYYCKQYLSSWTFGQG; 0.8
